- Assay Target: Epidermal growth factor receptor (Homo sapiens, UniProt P00533)
- Sequence (P00533 whole entry): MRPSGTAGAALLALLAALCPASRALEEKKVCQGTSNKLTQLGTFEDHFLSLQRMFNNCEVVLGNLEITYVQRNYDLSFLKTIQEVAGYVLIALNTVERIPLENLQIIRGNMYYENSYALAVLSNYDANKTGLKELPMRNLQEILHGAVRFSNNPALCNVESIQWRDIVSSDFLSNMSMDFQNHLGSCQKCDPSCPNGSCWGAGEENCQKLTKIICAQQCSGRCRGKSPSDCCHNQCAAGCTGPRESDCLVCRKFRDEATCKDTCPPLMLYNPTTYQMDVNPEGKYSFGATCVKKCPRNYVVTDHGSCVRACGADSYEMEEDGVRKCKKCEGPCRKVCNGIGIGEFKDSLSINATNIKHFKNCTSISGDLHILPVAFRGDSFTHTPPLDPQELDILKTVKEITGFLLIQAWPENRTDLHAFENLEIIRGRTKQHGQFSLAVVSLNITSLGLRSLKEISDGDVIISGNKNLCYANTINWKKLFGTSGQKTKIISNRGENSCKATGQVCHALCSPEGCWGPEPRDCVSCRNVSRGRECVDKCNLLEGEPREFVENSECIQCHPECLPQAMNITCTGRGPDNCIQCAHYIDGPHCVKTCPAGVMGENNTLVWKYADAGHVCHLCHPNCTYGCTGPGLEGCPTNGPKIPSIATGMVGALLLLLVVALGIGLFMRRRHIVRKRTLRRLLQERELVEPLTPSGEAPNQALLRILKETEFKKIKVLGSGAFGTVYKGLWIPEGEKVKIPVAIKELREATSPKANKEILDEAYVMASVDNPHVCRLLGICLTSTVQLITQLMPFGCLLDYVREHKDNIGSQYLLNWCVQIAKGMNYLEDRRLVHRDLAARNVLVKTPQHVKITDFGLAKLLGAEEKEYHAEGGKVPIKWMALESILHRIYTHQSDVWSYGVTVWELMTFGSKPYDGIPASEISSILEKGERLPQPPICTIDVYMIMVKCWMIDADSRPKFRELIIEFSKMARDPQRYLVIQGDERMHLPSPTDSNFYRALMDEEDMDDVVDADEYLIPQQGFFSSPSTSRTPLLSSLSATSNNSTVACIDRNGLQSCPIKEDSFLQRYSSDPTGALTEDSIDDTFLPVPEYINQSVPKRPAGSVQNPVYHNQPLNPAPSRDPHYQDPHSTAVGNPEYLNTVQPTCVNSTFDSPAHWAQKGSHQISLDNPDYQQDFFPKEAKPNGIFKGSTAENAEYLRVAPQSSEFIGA
- Assay Procedure: Inhibition of EGFR (unknown origin) using ultra ULight GT peptide as substrate at 10 uM incubated for 2 hrs relative to control
Result Type: inhibition (%)

These recorded examples may help you get a feel for the data.
[[record]]
smiles_structure = "c1ccc2c(Nc3ccc4c(c3)OCO4)ncnc2c1"
result_type = "inhibition"
readout_value = 91

[[record]]
smiles_structure = "COc1cc2ncnc(N[C@H](C)c3cccc(F)c3)c2cc1OC1CCOCC1"
result_type = "inhibition"
readout_value = 100

[[record]]
smiles_structure = "CCc1cc2c(Nc3ccc(Cl)cc3)ncnc2s1"
result_type = "inhibition"
readout_value = 66

[[record]]
smiles_structure = "Clc1cccc(Nc2ncnc3sc4c(c23)CCCC4)c1"
result_type = "inhibition"
readout_value = 74

[[record]]
smiles_structure = "c1ccc(Nc2ncnc3sc4c(c23)CCC4)cc1"
result_type = "inhibition"
readout_value = 70


P. CCc1cc2c(Nc3ccc(OC)cc3)ncnc2s1
Q. COc1cc2ncnc(NCc3ccc4c(c3)OCO4)c2cc1OC
Request: For the pair P and Q , which entry has the numerically smaller recorded inhibition? Output the label that corresponds to your choice.
Result: P

Value source: ChEMBL document CHEMBL5543153
